Parameter GI50: see the listing below.
- Test system: SNB-78
- assay.procedure: NCI tumour cell line growth inhibition, 48 h
Activity calls are given as the source filed them. No stated cut-off is given here; in the data, active = GI50 up to about 1.1 µM and inactive = higher.

Qu. Find the recorded GI50 belonging to O=C1Nc2ccc(Br)cc2/C1=N/Nc1ccc([N+](=O)[O-])cc1 and report it.
Ans. 18.9 µM (inactive)

Qu. And for COc1ccc2oc(C(=O)O)c3c2c1CCC3CCC(=O)O (centres undefined) ?
Ans. > 100 µM (inactive)

Qu. Cc1cc(Cl)cc2c1NC(=O)C2(O)C(C)C(=O)c1ccc(Cl)cc1 (centres undefined) ?
Ans. > 66.2 µM (inactive)

Qu. Then this molecule: C=C1CCC23CC(CC[C@@H]2[C@@]12C[C@@H](c1ccoc1)OC2=O)OC3=O (some centres undefined)
Ans. > 100 µM (inactive)

Qu. Same lookup for CC(=O)C(=Cc1cn(C)c(=O)n(C)c1=O)C(C)=O , please.
Ans. 214 µM (inactive)

Qu. Lookup C=C(C)C1CC=C(C)[C@](O)(C2(O)C[C@H](C(=C)C)CC=C2C)C1 (some centres undefined)
Ans. > 100 µM (inactive)

Qu. Another molecule to check: O=C(Cc1ccc([N+](=O)[O-])c([N+](=O)[O-])c1CC(=O)C(=O)Nc1cc(Cl)ccc1Cl)C(=O)Nc1cc(Cl)ccc1Cl
Ans. 80 µM (inactive)

Qu. Likewise for O=C(Cc1ccccc1)C(c1ccccc1)S(=O)(=O)c1ccccc1 (centres undefined) ?
Ans. 97.7 µM (inactive)

Qu. Query Cc1ccccc1Nc1nc2c(s1)C(=O)c1ccccc1C2=O next
Ans. 12.8 µM (inactive)

###

- System: LOX IMVI
- assay.procedure: NCI tumour cell line growth inhibition, 48 h
Calls of active or inactive are those of the source. No stated cut-off is given here; in the data, active = GI50 up to about 1.1 µM and inactive = higher.
GI50 values, listed per item

Examples with answers:
item.smiles | assay.system | GI50
COc1ccc(-c2c(N)n(-c3cccc(C(=O)O)c3)c(=O)c3cc([N+](=O)[O-])ccc23)cc1 | LOX IMVI | > 100 µM (inactive)
CCOC(=O)c1ccc2nc(-c3ccc(S(=O)(=O)F)cc3)cc(O)c2c1 | LOX IMVI | 36.5 µM (inactive)
CCOC(=O)c1ccc2c(c1)Cc1cc([N+](=O)[O-])ccc1-2 | LOX IMVI | 41.2 µM (inactive)
N#Cc1ccc(OC(=O)c2ccc(NC(=N)N)cc2)cc1.c1ccncc1 | LOX IMVI | 80.7 µM (inactive)

In the following, a different compound is considered.
Qu. Entry CCOc1cnc(C(O)(c2ccccc2)c2ccccc2)o1 : reported GI50 = ?
Ans. 69.7 µM (inactive)

###

Property: GI50; scope: individual compounds
- System: HOP-92
- assay.procedure: NCI tumour cell line growth inhibition, 48 h
Calls of active or inactive are those of the source. Cut-off read from the data, not from the text of the source: active = GI50 up to about 1.1 µM and inactive = higher.

compound | measurement.type | experimental.result
CCCCCCCCOC(CO)CO | GI50 | 44.6 µM (inactive)
CCCCCCCCOCC(O)COC(C)C (stereo not drawn) | GI50 | 13.7 µM (inactive)

Qu. State the recorded GI50 for this entry: CC(C)OCC(O)COc1ccc2ccc(=O)oc2c1 (stereo not drawn)
Ans. > 100 µM (inactive)

Qu. For C=C1c2ccccc2N(S(=O)(=O)c2ccc(C)cc2)C12CCCCC2 then?
Ans. 4.27 µM (inactive)

Qu. Then what about the compound O=C1CNc2cc(N3CCOCC3)ccc2N1 ?
Ans. > 100 µM (inactive)

Qu. What do you get for COn1cc(CO)c2ccccc21 ?
Ans. > 61.2 µM (inactive)

Qu. Please do the same for O=c1nc(-c2ccccc2)scc1-c1ccccc1 as well.
Ans. 67.9 µM (inactive)

Sourced from ChEMBL document CHEMBL1201862
